- target under test: CDK4 (Homo sapiens, UniProt P11802)
- Sequence (P11802 whole entry): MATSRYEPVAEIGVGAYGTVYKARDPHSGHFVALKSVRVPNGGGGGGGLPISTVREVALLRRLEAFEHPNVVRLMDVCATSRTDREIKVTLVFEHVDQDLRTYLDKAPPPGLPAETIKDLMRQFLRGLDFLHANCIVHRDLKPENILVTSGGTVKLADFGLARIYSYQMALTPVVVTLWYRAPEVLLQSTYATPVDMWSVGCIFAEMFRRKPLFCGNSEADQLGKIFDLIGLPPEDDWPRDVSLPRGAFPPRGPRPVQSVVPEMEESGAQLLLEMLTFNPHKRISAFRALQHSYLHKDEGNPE
- Sequence (P30281 whole entry partner): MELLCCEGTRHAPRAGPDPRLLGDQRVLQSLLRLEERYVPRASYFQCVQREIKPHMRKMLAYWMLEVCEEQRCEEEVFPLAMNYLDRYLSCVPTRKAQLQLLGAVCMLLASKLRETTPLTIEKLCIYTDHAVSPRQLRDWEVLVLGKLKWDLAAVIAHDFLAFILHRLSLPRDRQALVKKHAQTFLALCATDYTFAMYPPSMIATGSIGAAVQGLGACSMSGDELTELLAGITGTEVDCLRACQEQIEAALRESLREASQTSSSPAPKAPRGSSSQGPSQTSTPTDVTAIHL
pIC50: −log10 of the molar value.
measured property: pIC50

Some solved entries appear below for comparison.
> print(dat)
                                   compound  numeric.value
1  Cc1nc2c(F)cc(-c3nc(Nc4nccc(Sc5cnc(N6CCC7(CC6)CO[C@@H](C)[C@H]7N)cn5)c4Cl)ncc3F)cc2n1C(C)C [Compound 14]           7.72
2  Cc1nc2c(F)cc(-c3nc(Nc4cccc(Sc5cnc(N6CCC7(CC6)CO[C@@H](C)[C@H]7N)cn5)c4Cl)ncc3F)cc2n1C(C)C [Compound 25]           8.10
3  Cc1nc2c(F)cc(-c3nc(Nc4cnc(Sc5cnc(N6CCC7(CC6)CO[C@@H](C)[C@H]7N)cn5)c(Cl)c4)ncc3F)cc2n1C(C)C [Compound 13]           7.96
4  Cc1nc2c(F)cc(-c3nc(Nc4ccc(Cl)c(Sc5cnc(N6CCC7(CC6)CO[C@@H](C)[C@H]7N)cn5)n4)ncc3F)cc2n1C(C)C [Compound 20]           6.91

1 = Cc1nc2c(F)cc(-c3nc(Nc4ccc(Sc5cnc(N6CCC7(CC6)CO[C@@H](C)[C@H]7N)cn5)c(C#N)n4)ncc3F)cc2n1C(C)C [Compound 12]
2 = CN(C)C(=O)c1cc2cnc(Nc3nccc(Sc4cnc(N5CCC(C)(N)CC5)cn4)c3Cl)nc2n1C1CCCC1 [Compound 4]
Asked: Of the two listed items, which has the higher pIC50? First: 1 Second: 2 Selection: enter the item's label.
Given back: 1
(1: 6.85, 2: 6.36)
